molecular target: GluN1/GluN2A NMDARs (Rattus norvegicus, UniProt P35439+Q00959); construct: expressed in transfected cells; host or cells: Xenopus laevis oocytes injected with cRNA (GluN1:GluN2 1:1); assay: TEVC recordings of NMDAR currents from Xenopus laevis oocytes expressing GluN1/GluN2A; assay type: cell-based; settings: glutamate 30 μM; glycine 3 μM; minimum unconstrained; read-out: IC50 (concentration giving 50% of the maximal achievable inhibition)
Sequence (Q00959 20-1464 limits assumed, other chains not shown): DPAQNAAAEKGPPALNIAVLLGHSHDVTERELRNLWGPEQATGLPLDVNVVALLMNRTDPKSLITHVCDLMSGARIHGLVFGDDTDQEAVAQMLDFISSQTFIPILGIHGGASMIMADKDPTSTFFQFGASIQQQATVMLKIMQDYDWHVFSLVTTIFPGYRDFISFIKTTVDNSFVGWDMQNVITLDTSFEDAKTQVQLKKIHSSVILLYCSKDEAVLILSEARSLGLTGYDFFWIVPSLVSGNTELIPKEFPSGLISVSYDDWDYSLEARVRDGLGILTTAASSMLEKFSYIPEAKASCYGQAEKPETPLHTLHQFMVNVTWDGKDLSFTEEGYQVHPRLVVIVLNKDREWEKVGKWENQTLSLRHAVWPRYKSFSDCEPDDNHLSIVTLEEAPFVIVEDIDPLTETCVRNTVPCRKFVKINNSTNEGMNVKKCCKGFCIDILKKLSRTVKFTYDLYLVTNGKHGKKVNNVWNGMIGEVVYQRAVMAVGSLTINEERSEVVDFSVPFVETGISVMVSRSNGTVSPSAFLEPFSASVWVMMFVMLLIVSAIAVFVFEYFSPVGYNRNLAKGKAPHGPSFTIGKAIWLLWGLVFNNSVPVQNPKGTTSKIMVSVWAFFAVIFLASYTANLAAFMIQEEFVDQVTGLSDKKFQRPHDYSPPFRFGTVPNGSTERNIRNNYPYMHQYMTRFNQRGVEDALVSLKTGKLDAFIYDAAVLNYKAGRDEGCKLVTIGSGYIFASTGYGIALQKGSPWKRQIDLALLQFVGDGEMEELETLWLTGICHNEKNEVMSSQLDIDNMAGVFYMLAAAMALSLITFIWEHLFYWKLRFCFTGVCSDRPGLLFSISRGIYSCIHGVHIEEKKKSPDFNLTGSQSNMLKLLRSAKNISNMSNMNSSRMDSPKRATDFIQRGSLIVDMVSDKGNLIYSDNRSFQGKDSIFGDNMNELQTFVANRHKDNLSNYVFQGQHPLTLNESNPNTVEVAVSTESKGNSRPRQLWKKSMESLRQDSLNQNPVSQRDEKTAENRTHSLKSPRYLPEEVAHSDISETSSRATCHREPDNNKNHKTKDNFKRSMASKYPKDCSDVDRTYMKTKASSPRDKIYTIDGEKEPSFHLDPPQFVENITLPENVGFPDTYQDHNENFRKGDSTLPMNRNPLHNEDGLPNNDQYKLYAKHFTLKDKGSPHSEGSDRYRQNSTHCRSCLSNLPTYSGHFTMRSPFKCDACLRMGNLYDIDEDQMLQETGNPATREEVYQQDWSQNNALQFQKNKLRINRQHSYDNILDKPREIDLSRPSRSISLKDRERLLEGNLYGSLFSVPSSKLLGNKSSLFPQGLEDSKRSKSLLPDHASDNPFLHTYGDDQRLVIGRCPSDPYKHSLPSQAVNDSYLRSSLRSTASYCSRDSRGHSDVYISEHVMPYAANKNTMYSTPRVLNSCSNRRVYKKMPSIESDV
quantity: IC50 (µM)
The answer is to be given in µM; state only the numeric part.

q: For O=C(NNC(=O)c1ccc(CNS(=O)(=O)c2ccc(F)c(Cl)c2)cc1)c1ccccc1 , write its IC50.
a: 0.446

---

biological target: GluN1/GluN2A NMDARs (Rattus norvegicus, UniProt P35439+Q00959); construct: expressed in transfected cells; host or cells: Xenopus laevis oocytes injected with cRNA (GluN1:GluN2 1:1); assay: TEVC recordings of NMDAR currents from Xenopus laevis oocytes expressing GluN1/GluN2A; format: cell-based; conditions: glutamate 30 μM; glycine 10 μM; minimum unconstrained; read-out: IC50 (concentration giving 50% of the maximal achievable inhibition)
quantity: pIC50
To interpret pIC50, take it as minus log10 of a concentration measured in moles per litre.

q: For O=C(NNC(=O)c1ccc(CNS(=O)(=O)c2ccc(F)c(Cl)c2)cc1)c1ccccc1 [TCN 201] , write its pIC50.
a: 6.13

---

target: GluN1/GluN2A NMDARs (Rattus norvegicus, UniProt P35439+Q00959); construct: expressed in transfected cells; host or cells: Xenopus laevis oocytes injected with cRNA (GluN1:GluN2 1:1); assay: TEVC recordings of NMDAR currents from Xenopus laevis oocytes expressing GluN1/GluN2A; type: cell-based; conditions: glutamate 30 μM; D-serine 3 μM; minimum unconstrained; read-out: IC50 (concentration giving 50% of the maximal achievable inhibition)
quantity: pIC50
To interpret pIC50, take it as minus log10 of a concentration measured in moles per litre.

q: For O=C(NNC(=O)c1ccc(CNS(=O)(=O)c2ccc(F)c(Cl)c2)cc1)c1ccccc1 , write its pIC50.
a: 6.49

---

biological target: GluN1/GluN2A NMDARs (Rattus norvegicus, UniProt P35439+Q00959); construct: expressed in transfected cells; host or cells: Xenopus laevis oocytes injected with cRNA (GluN1:GluN2 1:1); assay: TEVC recordings of NMDAR currents from Xenopus laevis oocytes expressing GluN1/GluN2A; assay type: cell-based; details: glutamate 30 μM; D-serine 30 μM; minimum unconstrained; read-out: IC50 (concentration giving 50% of the maximal achievable inhibition)
quantity: IC50
Answer format: value, then unit.

q: For O=C(NNC(=O)c1ccc(CNS(=O)(=O)c2ccc(F)c(Cl)c2)cc1)c1ccccc1 , write its IC50.
a: 1.92 µM

---

target: GluN1/GluN2A NMDARs (Rattus norvegicus, UniProt P35439+Q00959); construct: expressed in transfected cells; host or cells: Xenopus laevis oocytes injected with cRNA (GluN1:GluN2 1:1); experiment: TEVC recordings of NMDAR currents from Xenopus laevis oocytes expressing GluN1/GluN2A; assay type: cell-based; conditions: glutamate 30 μM; glycine 30 μM; minimum unconstrained; read-out: IC50 (concentration giving 50% of the maximal achievable inhibition)
quantity: pIC50
To interpret pIC50, take it as minus log10 of a concentration measured in moles per litre.

q: For O=C(NNC(=O)c1ccc(CNS(=O)(=O)c2ccc(F)c(Cl)c2)cc1)c1ccccc1 [TCN 201] , write its pIC50.
a: 5.41
